pIC50 for assorted compounds
Molecular target: Nonstructural protein 3 (Zika virus, UniProt A0A024AXB9)
Sequence (A0A024AXB9 whole entry): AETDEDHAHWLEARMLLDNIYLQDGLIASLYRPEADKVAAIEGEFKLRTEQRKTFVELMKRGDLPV
Experiment: Functional biochemical assay to identify treatments for viral infectious disease that targets Zika NS2B-NS3 protease. Utilizing a direct enzyme activity measurement method, reading the fluorescence intensity is used to characterize the relative potency of inhibitors as IC50.
Design: species or system PRVABC59
pIC50: −log10 of the molar value.

- structure.string: "NCc1cc(NC(=O)c2cc(Cl)cc(NC(=O)OCc3ccccc3)c2)cc(C2=CC[C@H](C(=O)O)C2)c1"
  pIC50: 5.10
- structure.string: "O=C(Nc1cc(-c2cccnc2)ccn1)c1cc2n(n1)CCO2"
  pIC50: "< 4.60"
- structure.string: "CN1CCC(COc2cccc([C@H](NC(=O)OCc3ccccc3)C(=O)Nc3cccc(CN)c3)c2)CC1"
  pIC50: 4.06
- structure.string: "O=C1Cc2c(cccc2C(=O)Nc2ccc3c(c2)CNCC3)N1"
  pIC50: 5.52
- structure.string: "NCc1cccc(NC(=O)c2cc(Cl)cc(OC3CC3)c2)c1"
  pIC50: 4.69
- structure.string: "O=C(O)c1cc(Cl)ccc1S(=O)(=O)N[C@H]1CCN(Cc2ccccc2)C(=O)C1"
  pIC50: "< 4.00"
- structure.string: "CNC(=O)C(=O)/C=C/c1ccccc1"
  pIC50: "< 3.70"
- structure.string: "O=C(Nc1cc(-c2cccnc2)ccn1)c1cc(C2CC2)oc1C1CC1"
  pIC50: "< 4.60"
- structure.string: "CC(C)n1nncc1-c1cc(F)cc(C(=O)Nc2ccc3c(c2)CNC3)c1"
  pIC50: 5.73
- structure.string: "O=C(O)c1cc(NS(=O)(=O)c2ccc(Oc3ccccc3Cl)cc2)ccc1Cl"
  pIC50: "< 4.00"
- structure.string: "NCc1cccc(NC(=O)c2cccc3c2CCC3)c1"
  pIC50: 4.71
- structure.string: "NCc1cccc(NC(=O)[C@H]2C[C@@H](C(F)(F)F)C[C@@H](C(F)(F)F)C2)c1"
  pIC50: "< 4.00"
- structure.string: "O=C(Nc1ccc2c(c1)CNC2)c1cc(Cl)ccc1SC1CCCC1"
  pIC50: 6.07
- structure.string: "CCn1ccnc(N2CC[C@@H](CO)C2)c1=O"
  pIC50: "< 4.00"
- structure.string: "NCc1cccc(NC(=O)c2cc(C3CC3)nc3c(Cl)cnn23)c1"
  pIC50: "< 4.00"
- structure.string: "CS(=O)(=O)Nc1cc(Cl)cc(C(=O)Nc2cccc(CN)c2)c1"
  pIC50: "< 4.00"
- structure.string: "O=C(O)c1cc(Cl)ccc1S(=O)(=O)NC1CCN(c2ccc(C(F)(F)F)cn2)CC1"
  pIC50: "< 4.00"
- structure.string: "Cc1cc(C(F)(F)F)nc(C(=O)Nc2cccc(CN)c2)n1"
  pIC50: "< 4.00"
- structure.string: "NCc1cccc(NC(=O)c2nc(C3CC3)n(-c3ccccc3Cl)n2)c1"
  pIC50: "< 4.00"
- structure.string: "O=C(Nc1cc(Cl)cc(C(=O)Nc2ccc3c(c2)[C@H]2CC[C@H]3N2)c1)OCc1ccccc1"
  pIC50: 4.62
- structure.string: "C[C@H](C(=O)O)c1cccc(NC(=O)c2cc(Cl)cc(NC(=O)OCc3ccccc3)c2)c1"
  pIC50: "< 4.00"
